Test system: 873145-292-R-J1-PDC complex spheroid viability;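 note: spheroids exposed to compounds for 7 days before viability readout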
Test: Anticancer human tumor 873145-292-R-J1-PDC patient-derived renal clear cell carcinoma cell line growth inhibition [POLQ]
Conditions: curve of first compound; second compound 0.1 µM
pIC50: −log10 of the molar value.
quantity: pIC50

Data request: Respond only with pIC50 recorded for CC1COCCN1c1cc(C2(S(C)(=N)=O)CC2)nc(-c2ccnc3[nH]ccc23)n1 (stereo not given) + Nc1ccc(C#CCN(C(=O)Cc2ncc(C(F)(F)F)cc2C(F)(F)F)c2ccc(F)cc2)nn1
Data returned: < 5.00

Data request: Respond only with pIC50 recorded for CC1COCCN1c1cc(C2(O)CC3CCC(C2)O3)c2cnn(-c3ccn[nH]3)c2n1 (stereo not given) + Nc1ccc(C#CCN(C(=O)Cc2ncc(C(F)(F)F)cc2C(F)(F)F)c2ccc(F)cc2)nn1
Data returned: 5.96

Data request: Respond only with pIC50 recorded for O=c1[nH]cc(F)c(=O)[nH]1 + COC1C(OC(N)=O)C(O)C(Oc2ccc3c(O)c(NC(=O)c4ccc(O)c(CC=C(C)C)c4)c(=O)oc3c2C)OC1(C)C
Data returned: < 5.00

Data request: Respond only with pIC50 recorded for CCc1cc2c(N3CCc4c(cc(Cn5ccnc5)cc4-c4cn(C)nc4C(F)(F)F)C3=O)ccnc2c(OC)n1 + Nc1ccc(C#CCN(C(=O)Cc2ncc(C(F)(F)F)cc2C(F)(F)F)c2ccc(F)cc2)nn1
Data returned: < 5.00

Data request: Respond only with pIC50 recorded for C#Cc1c(F)ccc2cc(O)cc(-c3ncc4c(N5CC6CCC(C5)N6)nc(OCC56CCCN5CC(F)C6)nc4c3F)c12 (stereo not given) + COC1C(OC(N)=O)C(O)C(Oc2ccc3c(O)c(NC(=O)c4ccc(O)c(CC=C(C)C)c4)c(=O)oc3c2C)OC1(C)C
Data returned: < 5.00
